src = patent US11230581B2

- TARGET: HLA-A*02:01 (Homo sapiens, UniProt P04439, D140Y/D185E/D98H/E176V/E277Q/G131W/G231S/I119V/I121R/I166T/I218V/L300P/L318F/N151K/N90K/P208A/P217A/Q86G/Q94H/R138H/R169H/T345S)
- TEST SUMMARY: MHC binding assay (UV-ligand exchange, β2m ELISA, peptide exchange yield)
- EXPERIMENTAL CONTEXT: binding of HLA-class I restricted peptides to HLA-A*02:01, UV-ligand exchange
READOUT KIND: Peptide exchange (MHC class I binding score, peptide exchange yield)

589 (KLYPQLPAEI; listed as Homo sapiens) [compound 589] ... “+++” (≥50 = +++)
565 (ALQETPTSV; listed as Homo sapiens) [compound 565] ... “++” (≥20% = ++)
247 (VLLPNDLLEKV; listed as Homo sapiens) [compound 247] ... “+++” (≥50 = +++)
303 (AILPQLFMV; listed as Homo sapiens) [compound 303] ... “++++” (≥75% = ++++)
177 (YLLPEEYTSTL; listed as Homo sapiens) [compound 177] ... “++++” (≥75% = ++++)

response.value for 363 (KVLDVSDLESV; listed as Homo sapiens) [compound 363] (field: Peptide exchange (MHC class I binding score, peptide exchange yield)) = “++” (≥20% = ++)

Summary for this substance, 30 (LILDWVPYI; listed as Homo sapiens) [compound 30] : Peptide exchange (MHC class I binding score, peptide exchange yield) is “+++” (≥50 = +++)

Peptide exchange (MHC class I binding score, peptide exchange yield) recorded for this substance, 454 (KLPPPPPQA; listed as Homo sapiens) [compound 454] , is “+++” (≥50 = +++)
